System Name: human FPTase (Homo sapiens, UniProt P49354+P49356)
Assay Notes: In vitro inhibition of Ras farnesyl transferase
Run Conditions: recombinant FPTase; 650 nM Ras-CVLS, 100 nM farnesyl diphosphate; 30° C.; read-out: IC50 for inhibitory activity against human FPTase
Method: Transferase Assays. Isoprenyl-protein transferase activity assays are carried out at 30° C. unless noted otherwise. […] Filters are washed four times with 2 mL aliquots of 100% ethanol, mixed with scintillation fluid (10 mL) and then counted in a Beckman LS3801 scintillation counter. […]
Value Kind: IC50

- Compound: "Cn1cnc2c1C1c3ccc(C#N)c(c3)Oc3cccc(c3)S(=O)(=O)NCCC(=O)N1CC2 (racemic)"
  Result: "≤ 5 µM"

The measured values listed here are drawn from patent US6350755B1.
